- measured.on: NDM-1 (Klebsiella pneumoniae)
- assay: biochemical
- Format: biochemical
- conditions: NDM-1 enzyme, CCF2-FA substrate; read-out: NDM-1 IC50
// returns N unless IC50 is strictly below 3 nM, in which case Y

Recorded results for 5 molecules are shown here.
Nc1nc2c(-c3ccc(C(F)CO)c(S(N)(=O)=O)c3-c3nn[nH]n3)cccc2s1 (stereo not shown): Y
NC[C@H]1CC[C@@H](Cc2ccc(-c3ccc(N)nc3)c(-c3nnn[nH]3)c2S(N)(=O)=O)CC1: Y
NC1CCCc2ccc(-c3ccc(C(F)(F)F)c(S(N)(=O)=O)c3-c3nnn[nH]3)cc21 (stereo not shown): N
NS(=O)(=O)c1c(C(F)(F)F)ccc(-c2cccc(N3CCNCC3)c2)c1-c1nnn[nH]1: N
NC1CC(N[C@H]2CC[C@H](c3ccc(C(F)(F)F)c(S(N)(=O)=O)c3-c3nnn[nH]3)CC2)C1 (stereo partly shown) [Example 702]: N

Lab note: IC50 threshold 3 nM. Does this molecule come in strictly under it? `Nc1cc(-c2ccc(C(F)(F)F)c(S(N)(=O)=O)c2-c2nnn[nH]2)cc(N)n1`
N

Lab note: IC50 threshold 3 nM. Does this molecule come in strictly under it? `NS(=O)(=O)c1c(CC2CCN(CCO)CC2)ccc(-c2ccc(C3CNC3)cc2)c1-c1nn[nH]n1`
N

Lab note: IC50 threshold 3 nM. Does this molecule come in strictly under it? `NC[C@H]1CC[C@H](Cc2ccc(-c3ccc(C4CNC4)cc3)c(-c3nnn[nH]3)c2S(N)(=O)=O)CC1`
Y

Lab note: IC50 threshold 3 nM. Does this molecule come in strictly under it? Nc1nc2c(-c3ccc(CCC4CCC(N)CC4)c(S(N)(=O)=O)c3-c3nn[nH]n3)cccc2s1 (stereo not shown)
Y

Lab note: IC50 threshold 3 nM. Does this molecule come in strictly under it? `NCCNc1ccc(-c2cccc(S(N)(=O)=O)c2-c2nnn[nH]2)cn1`
N

---

- measured.on: NDM-1 (Klebsiella pneumoniae, UniProt C7C422)
- Sequence (C7C422 whole entry, looked up, species assumed): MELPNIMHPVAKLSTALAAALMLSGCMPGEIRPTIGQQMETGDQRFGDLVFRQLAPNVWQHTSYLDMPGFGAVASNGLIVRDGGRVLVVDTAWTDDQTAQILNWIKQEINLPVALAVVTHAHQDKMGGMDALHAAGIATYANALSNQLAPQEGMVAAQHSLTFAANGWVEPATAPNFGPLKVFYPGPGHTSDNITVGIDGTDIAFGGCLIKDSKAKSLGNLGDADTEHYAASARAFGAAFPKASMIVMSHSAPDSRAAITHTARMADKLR
- assay: biochemical
- Assay type: biochemical
- conditions: NDM-1 enzyme, CCF2-FA substrate; read-out: NDM-1 IC50
// returns not met unless IC50 is strictly below 30 nM, in which case met

Recorded results for 5 compounds are shown here.
N=C(N)N1CC(c2ccc(-c3ccc(CC4CCNCC4)c(S(N)(=O)=O)c3-c3nn[nH]n3)cc2)C1: met
NC[C@H]1CC[C@H](c2ccc(CC3CCNCC3)c(S(N)(=O)=O)c2-c2nn[nH]n2)CC1 [Example 589]: met
NS(=O)(=O)c1c(C(F)(F)F)ccc(-c2ccc3c(c2)CNC3)c1-c1nnn[nH]1: met
NS(=O)(=O)c1c(C(F)(F)F)ccc([C@H]2CC[C@H](NCC3CCCN3)CC2)c1-c1nnn[nH]1 (stereo partly shown): met
NS(=O)(=O)c1c(C(F)(F)F)ccc(-c2ccc(C3CCN(C[C@H]4CCCN4)CC3)cc2)c1-c1nnn[nH]1: met

Please examine the following record next.
Lab note: IC50 threshold 30 nM. Does this compound come in strictly under it? `CN(C)C1(C)CN(c2ccc(-c3cccc(S(N)(=O)=O)c3-c3nnn[nH]3)cn2)C1`
not met

---

- measured.on: VIM-1 (Pseudomonas aeruginosa (strain ATCC 15692 / DSM 22644 / CIP 104116 / JCM 14847 / LMG 12228 / 1C / PRS 101 / PAO1), UniProt A0A0F7KYQ8)
- assay: Enzyme activity: determination of IC50, fluorescence assay with CCF2-FA substrate (VIM-1)
- Format: biochemical
- conditions: fluorescence assay with CCF2-FA substrate; read-out: VIM-1 IC50
measured.quantity: pIC50
Answers are plain numbers, as −log10 of the molar value.

Please review the entries below; each comes with its answer.
NS(=O)(=O)c1cccc(C#CCC2CNCCO2)c1-c1nn[nH]n1 (stereo not shown) [Example 145]: 5.19
Nc1ccc2cc(-c3ccc(C(F)(F)F)c(S(N)(=O)=O)c3-c3nnn[nH]3)ccc2n1 [Example 745]: 9.76

Batch: pIC50 for all items listed.
1. NS(=O)(=O)c1c(C(F)(F)F)ccc(N2CCCC(CCCO)C2)c1-c1nnn[nH]1 (stereo not shown) [Example 769]
2. NS(=O)(=O)c1nccc(-c2ccc(CO)cc2)c1-c1nnn[nH]1 [Example 181]

1. 9.00
2. 6.74
